residual activity by entry:
target: Ubiquitin thioesterase OTUB1 (Homo sapiens); experiment: Inhibition of N-terminal His-6 tagged OTUB1 (40 to 271 residues) (unknown origin) expressed in Escherichia coli BL21 (DE3) cells at 10 nM using Ub-Rho measured after 0.5 to 3 hrs by fluorescence based Plate reader method relative to control; conditions: time 0.5-3 hrs, values are per cent of control
Sequence (Q96FW1 whole entry, the tested form may be a part): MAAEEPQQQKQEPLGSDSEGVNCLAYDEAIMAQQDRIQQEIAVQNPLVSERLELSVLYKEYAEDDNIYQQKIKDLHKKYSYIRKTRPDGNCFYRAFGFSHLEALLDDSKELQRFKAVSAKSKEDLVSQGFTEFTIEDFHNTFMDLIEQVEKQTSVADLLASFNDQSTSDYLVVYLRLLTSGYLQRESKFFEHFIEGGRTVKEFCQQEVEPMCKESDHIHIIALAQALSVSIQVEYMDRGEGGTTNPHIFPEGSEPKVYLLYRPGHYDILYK
Give just the numeric value; % need not be written.

# Substance Smiles, Test Target, residual activity, %
measured = [
    ("COc1cc(OC)cc(-c2nc3c(o2)C(=O)c2ccccc2C3=O)c1", "Ubiquitin thioesterase OTUB1 (Homo sapiens)", 83.6),
    ("O=C1c2ccccc2C(=O)c2oc(-c3cccc(F)c3F)nc21", "Ubiquitin thioesterase OTUB1 (Homo sapiens)", 50.2),
    ("O=C1c2ccccc2C(=O)c2oc(-c3cccc(OCCN4CCOCC4)c3)nc21", "Ubiquitin thioesterase OTUB1 (Homo sapiens)", 82.1),
    ("CN1CC[C@@H](Oc2cccc(-c3nc4c(o3)C(=O)c3ccccc3C4=O)c2F)C1", "Ubiquitin thioesterase OTUB1 (Homo sapiens)", 76.7),
    ("CN1CC[C@@H](Oc2cccc(-c3nc4c(o3)C(=O)c3ccccc3C4=O)c2)C1", "Ubiquitin thioesterase OTUB1 (Homo sapiens)", 70.7),
    ("COc1ccccc1-c1nc2c(o1)C(=O)c1ccccc1C2=O", "Ubiquitin thioesterase OTUB1 (Homo sapiens)", 59.2),
]

Alright, here's another compound for you.
Q: Read the entry O=C1c2ccccc2C(=O)c2oc(-c3ccccc3F)nc21 and write its reported residual activity.
A: 55.5
